target: ZFP SBS#962 (synthetic, UniProt P08047); assay: EMSA; conditions: tags: MBP fusion
Sequence (P08047 other isoform, or with tags, fused parts or gaps): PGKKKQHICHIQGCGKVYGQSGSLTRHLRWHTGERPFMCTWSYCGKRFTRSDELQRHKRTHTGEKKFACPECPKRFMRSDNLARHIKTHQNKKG
Outcome measure: Kd (nM)
Give just the numeric value; nM need not be written.

Can you share its Kd? I mean this binder: GAGGCGGCA (dsDNA) DNA 1: GAGGCGGCA DNA 2: TGCCGCCTC
0.015
